Study Target: hmGluR5a receptor (Homo sapiens (Human))
Sequence (P41594 other isoform, or with tags, fused parts or gaps): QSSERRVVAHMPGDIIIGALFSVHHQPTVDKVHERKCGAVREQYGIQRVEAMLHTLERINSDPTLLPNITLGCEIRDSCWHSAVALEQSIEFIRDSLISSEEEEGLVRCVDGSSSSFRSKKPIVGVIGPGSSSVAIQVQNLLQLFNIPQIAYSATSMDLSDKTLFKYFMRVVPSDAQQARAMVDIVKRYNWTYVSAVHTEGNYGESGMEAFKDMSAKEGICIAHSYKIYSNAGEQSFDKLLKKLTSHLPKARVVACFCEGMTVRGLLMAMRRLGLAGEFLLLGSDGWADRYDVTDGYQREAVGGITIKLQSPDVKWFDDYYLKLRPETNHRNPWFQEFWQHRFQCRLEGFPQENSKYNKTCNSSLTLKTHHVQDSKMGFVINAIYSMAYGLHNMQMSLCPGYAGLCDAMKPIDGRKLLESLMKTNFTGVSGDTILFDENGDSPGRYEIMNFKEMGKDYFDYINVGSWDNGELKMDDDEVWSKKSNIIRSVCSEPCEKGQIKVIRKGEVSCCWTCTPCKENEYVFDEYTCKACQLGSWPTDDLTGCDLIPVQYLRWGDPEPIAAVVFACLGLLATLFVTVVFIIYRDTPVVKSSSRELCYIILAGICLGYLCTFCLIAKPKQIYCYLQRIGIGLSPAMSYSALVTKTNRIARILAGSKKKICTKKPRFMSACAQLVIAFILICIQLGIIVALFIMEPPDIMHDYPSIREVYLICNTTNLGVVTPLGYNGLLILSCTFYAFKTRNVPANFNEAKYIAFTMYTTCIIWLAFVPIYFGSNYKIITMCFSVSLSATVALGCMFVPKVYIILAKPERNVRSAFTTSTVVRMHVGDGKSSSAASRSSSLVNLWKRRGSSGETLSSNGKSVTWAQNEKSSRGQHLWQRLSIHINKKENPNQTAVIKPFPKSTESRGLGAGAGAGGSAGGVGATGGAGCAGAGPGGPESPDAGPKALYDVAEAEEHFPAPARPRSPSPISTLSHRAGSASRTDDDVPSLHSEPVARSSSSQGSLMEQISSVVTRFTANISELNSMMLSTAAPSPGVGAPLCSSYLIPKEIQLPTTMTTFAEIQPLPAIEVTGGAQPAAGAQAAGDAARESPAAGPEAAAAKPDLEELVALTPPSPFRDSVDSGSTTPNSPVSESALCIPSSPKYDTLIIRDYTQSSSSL
Method Description: Calcium Flux Assay
Conditions: hmGluR5a/L38-20 cells, glutamate-evoked [Ca2+]i
Result Type: IC50 (nM)

Take a look at these entries with their results.
Smiles	Numeric Readout
Cc1nc(C#Cc2cnc(N3CCSCC3)nc2)cs1	2.3
Cc1nc(C#Cc2cnc(SC(C)(C)C)nc2)cs1	0.5
CCC(C)(C)Nc1ccc(C#Cc2csc(C)n2)cn1	6
Cc1nc(C#Cc2cnc(-c3cccc(C)c3C)nc2)cs1	0.4

I: Cc1nc(C#Cc2cnc(-c3ccccc3C)nc2)cs1
II: Cc1nc(C#Cc2cnc(OC3CCN(C(=O)OC(C)(C)C)CC3)nc2)cs1
Which shows the larger IC50 value: I or II ? Label of pick, please.
II

1: COc1ccc(F)cc1-c1ccc(C#Cc2csc(C)n2)cn1
2: Cc1nc(C#Cc2ccc(N(C)c3ccccn3)nc2)cs1
// pick larger IC50 from pair: 1 vs 2 Could you answer with the label of the item you picked?
2
(2: 9 nM, 1: 4.4 nM)
